tested on: A. baumannii; experiment: MIC (broth microdilution); format: cell-based, Acinetobacter baumannii
Source text: […]
Ends that are not written are not given here.
observed_property: MIC

substance: SKFKVLRKIIIKEYKGELMLSIQKQR [PF-530]
observed_property: MIC
result: A. baumannii, 25 μM
//
substance: YIQFHLNQQPRPKVKKIKIFL-NH2 [PF-531]
observed_property: MIC
result: A. baumannii, 25 μM
//
substance: KNKKQTDILEKVKEILDKKKKTKSVGQKLY [PF-538]
observed_property: MIC
result: A. baumannii, 25 μM

* * *

test system: microorganisms (e.g., bacteria, yeasts, fungi); assay: Targeting peptide binding to target microorganisms (Table 3); settings: microorganism(s) the targeting peptide binds; binding in aqueous buffers depending on peptide solubility, preferably 1x PBS
observed_property: Target(s)

substance: PF-317 (LILVSDI; Peptide with targeting and/or antimicrobial activity)
Target(s): S. mutans

substance: PF-328 (NGNEKAFSEVENLVK; Peptide with targeting and/or antimicrobial activity)
Target(s): S. mutans

substance: PF-160 (SFHASLTKNEKPIKSTG; Peptide with targeting and/or antimicrobial activity)
Target(s): S. epidermidis

substance: MKKLVAALAVIVILTGCVYDPVNYDKIHDQEFQDHLRQNG [PF-252]
Target(s): S. mutans

substance: PF-163 (TSWLRAAERQEIGEPTKTFGEKTTSL; Peptide with targeting and/or antimicrobial activity)
Target(s): S. epidermidis

substance: PF-155 (GRYGDDSKERQGRAQ; Peptide with targeting and/or antimicrobial activity)
Target(s): C. jeikeium

substance: PF-246 (QPDEKAEFFDPSLDKVYRHPTFYHIPDGIEHM; Peptide with targeting and/or antimicrobial activity)
Target(s): S. mutans

substance: PF-213 (MTTGVDFIIEKV; Peptide with targeting and/or antimicrobial activity)
Target(s): S. epidermidis

Q) Short answer please: Target(s), microorganisms (e.g., bacteria, yeasts, fungi), entry PF-351 (YLFFKGKKVAEEEATKDEVKR; Peptide with targeting and/or antimicrobial activity)
A) S. mutans

Q) // same read-out, input: PF-304 (LVKDTSDIKNDLNNIEIVTSKNSNDIAKLKSVK; Peptide with targeting and/or antimicrobial activity)
A) S. mutans

Data origin: patent US20110039762A1
